System: gene editing with dCas9
measurement-description: Screen of 322 new SSAP proteins, gene editing activity with dCas9 (Table 5)
Type: cell-based
condition-description: normalized

- molecule: "SSAP_76: SEQ ID NO: 245 (protein) ANELGIFSVDNLNMTTIKQYLDGGGKASDAELVLLINLCKQNNMNPFMKEVYFIKYGNQPAQIVVSRDFYRKRAFQNPNFAGIEVGVIVLNKDGVLEHNEGTFKTHEQELVGAWARVHLKNTEIPVYVAVSYDEYVQMKDGHPNKMWTNKPCTMLGKVAESQALRMAFPAEFSGTYGEEELPEPEKEPREVNGVKEPDRAQIESFDKEDYAARKIEELKEKAQPQKEVVKETGEVIDEITAEDF"
  dCas9 with SSAP activity (normalized): "−0.591"
- molecule: "SSAP_13: SEQ ID NO: 182 (protein) ANELGIFSVDNLNMTTIKQYLDGGGKASDAELVLLINLCKQNNMNPFMKEVYFIKYGNQPAQIVVSRDFYRKRAFQNPNFVGIEVGVIVLNKDGVLEHNEGTFKTHEQELVGAWARVHLKNTEIPVYVAVSYDEYVQMKDGHPNKMWTNKPCTMLGKVAESQALRMAFPAEFSGTYGEEEFPEPEKEPREVNGVKEPDRAQIESFDKEDYAAKKIEELKEKAQPQKEVVEETGEVIDEEPLEGF"
  dCas9 with SSAP activity (normalized): "−0.758"
